Below is a list of entries, each paired with its recorded abundance fitness value.
B1: E3 ubiquitin-protein ligase Midline-1, residues 172 to 214; numbered along this chain, O15344 (parent)
chain: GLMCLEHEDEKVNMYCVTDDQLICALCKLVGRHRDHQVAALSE

Variants of: B1
TEST: abundance fitness (aPCA) (normalised: wild type 0, dead -1); higher = more abundant; growth selection in yeast, the domain comes from the species named
CONDITIONS: Homo sapiens
A bare number is all that is needed in reply.

> print(dat)
   mutation.annotation  meas.value
1                  M3V      -0.144
2                 Q21E      -0.047

// abundance fitness value for "V38I" : -0.217

Briefly, abundance fitness measured for "Q37M" : -0.269

// "E10N" : abundance fitness value = 0.093

The value of abundance fitness measured for the variant "E10D" turned out to be -0.164

According to the records, this variant "L41N" displays abundance fitness of -0.034

Sure, the documented abundance fitness for "T18L" is -0.32
